# Test system: LOX IMVI
# METHOD_DESCRIPTION: NCI tumour cell line growth inhibition, 48 h
The source made the active and inactive calls. Cut-off read from the data, not from the text of the source: active = GI50 up to about 1.1 µM and inactive = higher.
Returns: one label drawn from yes = active, no = inactive

* Cc1ncc(CSc2ccccc2N)c(CO)c1O | no
* CCOC(=O)Cn1c(C(F)(F)F)nc2nc(Cl)c(Cl)nc21 | no
* COc1cc(C2c3cc4c(cc3OC(NNc3ccccc3)C2C)OCO4)cc(OC)c1OC (stereo unspecified) | yes

[in] Could you please tell me the result logged for Cn1c(=O)c2[nH]c(N=O)nc2n(C)c1=O in this assay?
[out] no

[in] Give the logged outcome of this assay for the following compound: CC(OC1CC(=O)CC2C(=O)C=CC(=O)C12)c1ccccc1 (stereo unspecified)
[out] no

[in] Dear colleague, could you share the recorded outcome for O=C(NCCCNCCNC(=O)c1cc(-c2ccccc2)nc2ccccc12)c1cc(-c2ccccc2)nc2ccccc12 when you have a moment?
[out] no

Hey, just so you know, these numbers are from ChEMBL document CHEMBL1201862.
